- System: Karpas-422 cells
- protocol: Anti-proliferation by Cell Titer-Glo method (Test Example 3)
- Type: cell-based
- settings: Homo sapiens; Karpas-422 cells, Cell-Titer Glo on the eleventh day; read-out: Test Example 3 Karpas-422 cell anti-proliferation IC50
readout_type: pIC50
Answers are plain numbers, as −log10 of the molar value.

Recorded results for 5 compounds are shown here.
Check the records and state pIC50 for CSc1cc(C)[nH]c(=O)c1CNC(=O)c1cc(Cl)c2c(c1C)O[C@@H]([C@H]1CC[C@@H](N3CCN(C)CC3)CC1)CO2
7.75

Check the records and state pIC50 for COc1cc(C)[nH]c(=O)c1CNC(=O)c1cc(Cl)c2c(c1C)OC(C1CCC(N(C)C)CC1)CO2 (stereo not drawn)
7.63

Check the records and state pIC50 for Cc1cc(C)c(CNC(=O)c2cc(Cl)c3c(c2C)O[C@@H](C2CCC(N(C)C)CC2)CO3)c(=O)[nH]1 (stereo partly drawn)
7.85

Check the records and state pIC50 for CSc1cc(C)[nH]c(=O)c1CNC(=O)c1cc(C#N)c2c(c1C)O[C@@H]([C@H]1CC[C@@H](N3CC(OCCF)C3)CC1)CO2
8.62

Check the records and state pIC50 for COC1CN([C@H]2CC[C@@H]([C@@H]3COc4c(F)cc(C(=O)NCc5c(SC)cc(C)[nH]c5=O)c(C)c4O3)CC2)C1
6.43

# next compound below
Check the records and state pIC50 for CSc1cc(C)[nH]c(=O)c1CNC(=O)c1cc(C#N)c2c(c1C)O[C@@H]([C@H]1CC[C@@H](N3CC(OC(F)F)C3)CC1)CO2
8.77
